- assay_procedure: HepG2 cytotoxicity, primary screen, cytotoxicity control for P. falciparum antimalarial project, cell-based, ATP luminescence (AID 2303);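 further: 0% = DMSO wells and 100% = digitonin-killed cells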
- stated_conditions: HepG2 viability, 24-48 h, at 10 µM
Activity calls are given as the source filed them.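 How the source made its calls: active means inhibition above 50%; inactive means the rest.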
Possible outcomes: 1 (yes) (active), 0 (no) (inactive)

1. Cc1cc(C(=O)NC2CCN(CC3(c4ccccc4)CCCCC3)CC2)on1 : 0 (no)
2. N#Cc1ccc(N[C@@H](CC2CCCCC2)C(=O)NCc2cc(F)c(F)cc2F)c2ccccc12 : 0 (no)
3. Cc1ccc(C2=NNC3(S2)C(=O)N(C)c2ccccc23)cc1 (stereo not drawn) : 0 (no)
4. COc1ccc(CNC2CCN(C)CC2)cc1-c1ccc(S(=O)(=O)NCCc2ccccn2)c(C)c1 : 0 (no)
5. O=C(NCc1ccc(F)cc1)Nc1cccc(-c2ccc(-c3nc4ccccc4[nH]3)cc2)c1 : 0 (no)
6. COc1ccc2nccc(N3CCC(NCc4ccc5c(n4)NC(=O)CS5)CC3)c2n1 : 0 (no)
7. COc1cc(C)nc2ccc(NC(=O)Nc3ccc([N+](=O)[O-])cc3C)cc12 : 0 (no)
8. N#Cc1cccc(NC(=O)Nc2cccc(-c3cccc(-c4nc5ccc(C(F)(F)F)cc5[nH]4)c3)c2)c1 : 1 (yes)

---

- assay_procedure: HepG2 cytotoxicity, primary screen, cytotoxicity control for P. falciparum antimalarial project, cell-based, ATP luminescence (AID 2303);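 further: 0% = DMSO wells and 100% = digitonin-killed cells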
- stated_conditions: HepG2 viability, 24-48 h, at 10 µM, hits give high values
result_type: inhibition (%)

1. CCCC1CCNC(C(O)c2ccnc3ccc(OC)cc23)C1 (stereo not given) : -15
2. Cc1cc(NCCc2ccccc2)nc(/N=C(\N)Nc2cccc([N+](=O)[O-])c2)n1 : 21
3. CC(=O)N(C)/N=C/[C@H](CCc1ccccc1)NC(=O)[C@H](CC(C)C)NC(=O)c1cccc(OCCN2CCOCC2)c1 : 5
4. COc1ccc(CC(=O)NC(CCN2CCC3(CC2)CN(S(C)(=O)=O)c2ccccc23)c2ccc(Cl)c(Cl)c2)cc1OC (stereo not given) : 10
5. O=C1OC2(CCN(Cc3cccc(-c4ncc[nH]4)c3)CC2)CN1CCNCc1ccccc1 : -8

---

- target_system: L-lactate dehydrogenase (Plasmodium falciparum (isolate CDC / Honduras))
- assay_procedure: PfLDH activity inhibition – cell lysate, 3D7 strain, counter-screen for P. falciparum growth inhibition project (AID 2304);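 further: 0% = vehicle and 100% = reference inhibitor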
- stated_conditions: P. falciparum 3D7 crude extract, LDH APAD/NBT absorbance; at 2 µM; hits give high values
Catalogue of compounds with associated inhibition
result_type: inhibition (%)

1. COc1ccc(Nc2nccc(N3CCC(NC(=O)Nc4cccc(C(C)=O)c4)C3)n2)cc1 (stereo unspecified) : -11
2. CC1(C)N=C(N)N=C(N)N1OCc1ccc2ccccc2c1CON1C(N)=NC(N)=NC1(C)C : 1
3. COc1ccc2ncc(F)c([C@H](O)CN3CCC(NCc4ccc5c(c4)NC(=O)CO5)CC3)c2c1 : -1
4. CCCCCCc1c(C)[nH]c2cc(OC)ccc2c1=O : 3
5. CCCNCc1ccc(-c2ccc(CN(CCOC)C(=O)CC3CCCC3=O)cc2)nc1 (stereo unspecified) : 3
6. O=C(/C=C/c1ccc(Cl)cc1)NCCCCCN1CCCC(C(=O)Nc2ccc(Cl)cc2)C1 (stereo unspecified) : 8

---

- target_system: L-lactate dehydrogenase (Plasmodium falciparum (isolate CDC / Honduras))
- assay_procedure: PfLDH activity inhibition – cell lysate, 3D7 strain, counter-screen for P. falciparum growth inhibition project (AID 2304);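 further: 0% = vehicle and 100% = reference inhibitor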
- stated_conditions: P. falciparum 3D7 crude extract, LDH APAD/NBT absorbance; at 2 µM; hits give high values
result_type: inhibition (%)

1. c1ccc(-c2[nH]ncc2Nc2ccnc3ccccc23)nc1 : 1
2. Cc1cccc2[nH]c(-c3ccc(-c4ccc(CN5CCC(C(N)=O)CC5)cc4)cc3)nc12 : 1
3. CC(C)c1ccc(C=CC(=O)N2CCC(CCN3CCC(c4c[nH]c5ccccc45)CC3)CC2)cc1 : 4
4. CNc1c2c(nc3ccc(NC(=O)CCCCCCc4ccccc4)cc13)CCCC2 : 0
5. O=C(Cc1ccsc1)NCC(c1ccccc1Cl)c1c[nH]c2ccccc12 (centres undefined) : -1
6. CCc1cn2c3c(cc(C(=O)N[C@@H](Cc4cccc(F)c4)[C@H](O)CNC4CC4)cc13)N(C)S(=O)(=O)CC2 : 1
7. Cc1ccc(NC(=O)Nc2ccc(Cl)cc2)cc1-c1cccc(C(=O)Nc2ccc(F)cc2)c1 : 5
8. Nc1nc(N)c2c(ccc3c2ccn3Cc2ccc(Cl)cc2)n1 : 0
9. N#Cc1cccc(NC(=O)Nc2cccc(OC3CCN(Cc4ccccc4)CC3)c2)c1 : 1
10. COc1ccccc1NS(=O)(=O)c1cc(C(=O)Nc2ccc(N3CCOCC3)c(S(=O)(=O)Nc3ccccc3Cl)c2)ccc1Cl : -2
11. N#CC(c1ccc(F)cc1)c1ccc2c(C(F)(F)F)cc(C(F)(F)F)nc2n1 (centres undefined) : 2
12. CCOc1cc(C)ccc1C1CCN(CCCCNC(=O)c2ccc(NC(=O)c3cc(Cl)cc(Cl)c3)cc2)CC1 : -5
13. O=C(CN1CCN(C(C(=O)Nc2cc(C(F)(F)F)ccc2Cl)c2ccccc2)CC1)NC1CC1 (centres undefined) : -3
14. COc1cccc(NC(=O)COc2ccc(C(=O)Nc3nc4ccccc4[nH]3)cc2)c1 : 0

---

The molecules listed here are annotated with their inhibition.
- target_system: L-lactate dehydrogenase (Plasmodium falciparum (isolate CDC / Honduras)) (UniProt Q27743)
- Sequence (Q27743 whole entry, looked up): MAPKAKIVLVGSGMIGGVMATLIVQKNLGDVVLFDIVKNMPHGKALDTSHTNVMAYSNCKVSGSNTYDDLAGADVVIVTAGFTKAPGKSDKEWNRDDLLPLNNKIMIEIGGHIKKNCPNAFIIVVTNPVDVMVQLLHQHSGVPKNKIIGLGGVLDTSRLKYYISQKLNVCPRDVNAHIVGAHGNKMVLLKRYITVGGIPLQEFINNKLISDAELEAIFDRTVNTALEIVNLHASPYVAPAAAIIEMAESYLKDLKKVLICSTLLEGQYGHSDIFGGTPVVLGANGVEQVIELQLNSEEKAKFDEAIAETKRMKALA
- assay_procedure: PfLDH activity inhibition – cell lysate, 3D7 strain, counter-screen for P. falciparum growth inhibition project (AID 2304);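 further: 0% = vehicle and 100% = reference inhibitor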
- stated_conditions: P. falciparum 3D7 crude extract, LDH APAD/NBT absorbance; at 2 µM; hits give high values
result_type: inhibition (%)

1) O=C(Nc1ccc(OC2CCN(Cc3ccccc3)CC2)c(Cl)c1)c1cccs1 : 4
2) CCN(CC)c1ccc(NC(=S)NC2CCN(CCCCCNC(=O)/C=C/c3ccc(Cl)c(Cl)c3)CC2)cc1 : 3
3) O=C(C(=O)c1ccc(Nc2ccnc3cc(-c4ccccn4)ccc23)cc1)c1ccccc1 : -4
4) COc1cc2nc(Nc3ccc(Oc4ccccc4)cc3)nc(Nc3ccc(Oc4ccccc4)cc3)c2cc1OC : 6
5) Cc1cc(Nc2cccc(Cl)c2)nc2ccc(NC(=O)c3ccc(=O)[nH]c3)cc12 : 4
6) Cc1ccc2ccccc2c1CCCON1C(N)=NC(N)=NC1(C)C : 5
7) CCOC(=O)N1CCN(C(=O)Nc2ccc(Cl)cc2)CC1 : 0
8) Cc1c(Cc2ccccc2Cl)cnc2nc(N)nc(N)c12 : -2
9) COc1ccc2nccc([C@@H](O)CN3CCC(NCc4cc5cccc(O)c5c(=O)[nH]4)CC3)c2c1 : 3
10) COc1cccc(CN2CCCN(Cc3cccc(NC(=O)c4ccc(-c5ccccc5)cc4)c3)CC2)c1 : -1
11) CN(C)c1cccc2c1nc(-c1ccco1)n2CC1CCCN1 (centres undefined) : 6
12) CC(=O)Nc1nc(C(=O)Nc2ccc(-c3ccc(-c4nc5ccc(F)cc5[nH]4)cc3)cc2)cs1 : -5
13) COc1ccc2c(c1)OC(C)(C)CC2=NOS(=O)(=O)c1ccc(C)cc1 : 4
14) Cc1cccc2[nH]c(-c3cccc(-c4cccc(NC(=O)c5ccoc5)c4)c3)nc12 : -4
15) CC(C)NCC(O)COc1ccc(Cc2ccc(OCC(O)CNC(C)C)cc2)cc1 (centres undefined) : -5
16) Cc1cc(N(C)CCN(C)C)nc(Nc2ccc(Br)cc2)n1 : -1
17) O=C1CSc2ccc(CNC3CCN(CCc4c(F)cnc5ccc(F)cc45)CC3)nc2N1 : 1
18) O=c1n(CC2CCCCC2)c2cc(Cl)cc(OCCNc3ccncc3)c2n1CC1CCCCC1 : -3
19) NC(=O)c1cnc2cc(-c3ccoc3)ccc2c1Nc1ccc(NC(=O)Nc2ccccc2Cl)cc1 : -5

---

- target_system: Plasmodium falciparum protein kinase 6 (PK6, PF3D7_1337100) (UniProt Q8IDW1)
- assay_procedure: PfPK6 kinase inhibitors, biochemical, TCAMS library (AID 1159586)
- stated_conditions: recombinant PfPK6, Kinase-Glo ATP depletion luminescence
Results with a measured potency or affinity are listed apart. Activity calls are given as the source filed them. No rule for the calls is given here.
result_type: outcome

1) CCCCCCN1CCC(NCc2ccc(CN(C)C)cc2)CC1 : inactive
2) Cc1ccc(NC(=O)c2cccc(C#N)c2)cc1-c1ccc(C(=O)Nc2ccncc2)cc1 : inactive
3) COc1ccc(CCNCCCCCCNCCc2ccccc2Cl)cc1OC : inactive
4) C(=NNc1nc2ccccc2[nH]1)c1ccccc1OCc1ccccc1 : inactive
5) O=C(Nc1ccc(Cl)cc1)OCCn1nnnc1C(c1ccc(Cl)cc1)N1CCOCC1 (centres undefined) : inactive
6) Cc1cc(NN=Cc2ccccc2[N+](=O)[O-])c2ccccc2n1 : inactive
7) CCC(C)c1ccc(O)c(NC(=O)c2cncc(Br)c2)c1 (centres undefined) : inactive
8) Cc1ccc(-c2cc(C(=O)Nc3ccc(S(=O)(=O)N4CC(C)OC(C)C4)cc3)[nH]n2)c(O)c1 (centres undefined) : inactive
9) CCCCc1cc(NCC)nc(Nc2cccc(OC)c2)n1 : inactive
10) Nc1c2c(nc3ccc(NC(=O)c4ccccc4)cc13)CCCC2 : inactive
11) N#Cc1ccc(N2CCN(Cc3cccc(-c4cccc(-c5nc6ccc(F)cc6[nH]5)c4)c3)CC2)nc1 : inactive
12) Cc1cccc(NC(=O)Nc2cccc(-c3ccc(-c4nc5ccc(C(F)(F)F)cc5[nH]4)cc3)c2)c1 : inactive
13) CN1CCCC(CN2CCN(Cc3ccc(-c4cccc(-c5nc6ccc(F)cc6[nH]5)c4)cc3)CC2)C1 (centres undefined) : inactive
14) CN1CCN(c2ccnc3ccc(NC(=O)Nc4cccc5c(C#N)cccc45)cc23)CC1 : inactive
